Target: USP38 (UniProt Q8NB14)
Sequence (Q8NB14 whole entry, the tested form may be a part): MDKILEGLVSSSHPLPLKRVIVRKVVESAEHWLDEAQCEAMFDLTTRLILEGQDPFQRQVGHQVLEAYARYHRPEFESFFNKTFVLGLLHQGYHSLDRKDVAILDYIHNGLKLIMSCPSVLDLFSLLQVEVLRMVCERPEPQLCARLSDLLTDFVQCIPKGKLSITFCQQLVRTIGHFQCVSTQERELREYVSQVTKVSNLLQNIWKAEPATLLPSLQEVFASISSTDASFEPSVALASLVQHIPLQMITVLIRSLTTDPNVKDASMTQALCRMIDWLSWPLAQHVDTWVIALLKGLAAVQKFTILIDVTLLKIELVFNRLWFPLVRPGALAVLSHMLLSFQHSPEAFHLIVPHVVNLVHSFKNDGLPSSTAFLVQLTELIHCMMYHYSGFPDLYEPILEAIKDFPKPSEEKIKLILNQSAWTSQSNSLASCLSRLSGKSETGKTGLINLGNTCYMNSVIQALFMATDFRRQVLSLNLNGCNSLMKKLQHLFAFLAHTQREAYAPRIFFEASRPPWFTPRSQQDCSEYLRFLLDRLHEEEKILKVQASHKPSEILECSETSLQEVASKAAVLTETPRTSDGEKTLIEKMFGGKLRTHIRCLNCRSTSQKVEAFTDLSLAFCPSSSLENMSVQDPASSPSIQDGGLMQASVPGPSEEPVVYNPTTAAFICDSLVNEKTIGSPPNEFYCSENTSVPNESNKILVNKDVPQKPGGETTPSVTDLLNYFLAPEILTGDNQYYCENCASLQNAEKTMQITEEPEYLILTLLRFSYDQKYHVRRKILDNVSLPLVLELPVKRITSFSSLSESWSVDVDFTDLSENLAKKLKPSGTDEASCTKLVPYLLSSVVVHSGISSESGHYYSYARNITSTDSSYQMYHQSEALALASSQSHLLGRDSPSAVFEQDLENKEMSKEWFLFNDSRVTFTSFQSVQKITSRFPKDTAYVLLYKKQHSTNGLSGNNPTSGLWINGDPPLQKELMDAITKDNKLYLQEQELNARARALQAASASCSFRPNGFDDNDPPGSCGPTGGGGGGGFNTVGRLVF
Assay: log2 ratio of Biotin-Ahx-Ub-VS probe labelling (fragment/DMSO); higher = less target engagement (more negative = stronger competition), active = hit call of the paper (q ≤ 0.05, log2 ratio ≤ -1)
Settings: compound concentration: 200 uM; treatment time: 3 h
Is log2 ratio of Biotin-Ahx-Ub-VS probe labelling at least -0.1? Then met. If not, not met.

| compound | test_target | assigned_label |
| --- | --- | --- |
| CC(C)CN(C(=O)CCl)C1CC1 | USP38 (UniProt Q8NB14) | met |
| O=C(CCl)NCC1CCCO1 (stereo unspecified) | USP38 (UniProt Q8NB14) | met |
| CC1CN(C(=O)CCl)CC(C)O1 (stereo unspecified) | USP38 (UniProt Q8NB14) | not met |
| CC1CCCCN1C(=O)CCl (stereo unspecified) | USP38 (UniProt Q8NB14) | not met |
| N#CC1(NC(=O)CCl)CCCC1 | USP38 (UniProt Q8NB14) | met |
| Cc1nnc(NC(=O)CCl)s1 | USP38 (UniProt Q8NB14) | not met |
| O=C(CCl)Nc1cccc(Cl)c1 | USP38 (UniProt Q8NB14) | not met |
| CN(C(=O)CCl)C1CCCCC1 | USP38 (UniProt Q8NB14) | met |
| CC1CCCCC1NC(=O)CCl (stereo unspecified) | USP38 (UniProt Q8NB14) | met |
| Cc1ncsc1CNC(=O)CCl.Cl | USP38 (UniProt Q8NB14) | met |
| Cc1cc(NC(=O)CCl)no1 | USP38 (UniProt Q8NB14) | not met |
